List of Minimum inhibitory concentrations, MDR S. aureus values.
# Tested on: MDR S. aureus
# protocol: microbe, parasite or virus in culture
# assayContext: CLSI broth microdilution; CAMHB with 50 mg/L Ca2+, 10 mg/L Mg2+; 5 × 10^5 CFU/ml; 18 h 37 °C; triplicate; strain KCCM 40510
Ends that are not written are not given here.

substance | val
SLLWIALRKK-NH2 [SCopW] | >20 µM

Item under review: GVLVWFRRR-NH2 [Ptg C-ter 2] . Reported Minimum inhibitory concentrations, MDR S. aureus?
> 20 µM

What do we get for HLLWIALRKK-NH2 [HCopW] ?
>20 µM

What do we get for WLVWVGRRR-NH2 [Hybrid-1] ?
> 20 µM

What do we get for GVLVLFRRR-NH2 [Ptg C-ter 1] ?
> 20 µM

What do we get for GVWVLFRRR-NH2 [Ptg C-ter 3] ?
> 20 µM

What do we get for WLVWIGRRR-NH2 [Hybrid-2] ?
> 20 µM

----------
# Test system: MDR E. faecalis
# protocol: microbe, parasite or virus in culture
# assayContext: CLSI broth microdilution; CAMHB with 50 mg/L Ca2+, 10 mg/L Mg2+; 5 × 10^5 CFU/ml; 18 h 37 °C; triplicate; strain ATCC 51575
# Protocol: MDR Pseudomonas aeruginosa (CCARM 2180) was purchased from the Culture Collection of Antimicrobial Resistance Microbes (Seoul, Republic of Korea). […] To assess antimicrobial activity, the MIC50 and MIC90 were measured using broth microdilution following CLSI guidelines. […] MICs in albumin and acetic acid solutions were measured using the same protocol but with 0.2% bovine serum albumin (Bovogen, Keilor, Australia), 0.01% acetic acid (Merck, New Jersey, USA), and CAMHB with both calcium and magnesium. […]
Ends that are not written are not given here.
reportedProperty: Minimum inhibitory concentrations, MDR E. faecalis

Examples with answers:
substance | val
GVWVLFRRR-NH2 [Ptg C-ter 3] | > 20 µM
HLLWIALRKK-NH2 [HCopW] | >20 µM
GVLVWFRRR-NH2 [Ptg C-ter 2] | > 20 µM
SLLWIALRKK-NH2 [SCopW] | >20 µM

Recall the recorded Minimum inhibitory concentrations, MDR E. faecalis for GVLVLFRRR-NH2 [Ptg C-ter 1] with MDR E. faecalis and state it.
> 20 µM

What do we get for WLVWIGRRR-NH2 [Hybrid-2] ?
> 20 µM

What do we get for WLVWVGRRR-NH2 [Hybrid-1] ?
> 20 µM

----------
# Tested on: MDR P. aeruginosa
# protocol: microbe, parasite or virus in culture
# assayContext: CLSI broth microdilution; CAMHB with 50 mg/L Ca2+, 10 mg/L Mg2+; 5 × 10^5 CFU/ml; 18 h 37 °C; no visible turbidity; triplicate; strain CCARM 2180
Square brackets hold non-standard residues; d marks the D form. Peptide text beside a SMILES is read from it.
reportedProperty: Minimum inhibitory concentrations, MDR P. aeruginosa

Examples with answers:
compound | val
CC[C@@H](C)[C@@H](NC(=O)[C@@H](Cc1c[nH]c2ccccc12)NC(=O)[C@@H](CC(C)C)NC(=O)[C@H](N)CC(C)C)C(=O)NCC(=O)N[C@H](CC(C)C)C(=O)N[C@H](CCCNC(=N)N)C(=O)N[C@H](CCCCN)C(=O)N[C@H](CCCCN)C(=O)N[C@H](CCCNC(=N)N)C(N)=O [WCopW13] (H-[dL][dL][dW][dI]G[dL][dR][dK][dK][dR]-NH2) | > 20 µM
CC[C@@H](C)[C@@H](NC(=O)[C@@H](Cc1c[nH]c2ccccc12)NC(=O)[C@@H](CC(C)C)NC(=O)[C@@H](CC(C)C)NC(=O)[C@H](N)Cc1c[nH]c2ccccc12)C(=O)NCC(=O)N[C@H](CC(C)C)C(=O)N[C@H](CCCNC(=N)N)C(=O)N[C@H](CCCCN)C(=O)N[C@H](CCCCN)C(N)=O [WCopW8] (H-[dW][dL][dL][dW][dI]G[dL][dR][dK][dK]-NH2) | > 20 µM

Recall the recorded Minimum inhibitory concentrations, MDR P. aeruginosa for CC[C@@H](C)[C@@H](NC(=O)[C@@H](Cc1c[nH]c2ccccc12)NC(=O)[C@@H](CC(C)C)NC(=O)[C@H](N)CC(C)C)C(=O)NCC(=O)N[C@H](CC(C)C)C(=O)N[C@H](CCCCN)C(=O)N[C@H](CCCCN)C(=O)N[C@H](CCCCN)C(=O)N[C@H](CCCCN)C(N)=O [WCopW14] (H-[dL][dL][dW][dI]G[dL][dK][dK][dK][dK]-NH2) with MDR P. aeruginosa and state it.
> 20 µM

----------
# Tested on: MDR S. aureus
# protocol: microbe, parasite or virus in culture
# assayContext: CAMHB plus 0.2% bovine serum albumin and 0.01% acetic acid; values marked * in Table 2
Ends that are not written are not given here.
List of MIC in 0.2% albumin and 0.01% AcOH added CLSI standard condition, MDR S. aureus values.

substance | val
WLVWIGRRR-NH2 [Hybrid-2] | > 20 µM
WLVWVGRRR-NH2 [Hybrid-1] | > 20 µM

Could you now look at the following substance, please?
Item under review: GVLVLFRRR-NH2 [Ptg C-ter 1] . Reported MIC in 0.2% albumin and 0.01% AcOH added CLSI standard condition, MDR S. aureus?
> 20 µM

Taken from paper PMC9643456.
